Parameter: self-cleavage. Scope: all listed entries.
B1: CPEB3 Ribozyme (parent)
chain: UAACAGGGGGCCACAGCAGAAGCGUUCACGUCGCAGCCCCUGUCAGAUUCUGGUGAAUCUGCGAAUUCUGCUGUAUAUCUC

- Variants of: B1
- testProtocol: self-cleavage, relative activity (ratio to wild type); higher = more cleavage; in vitro, sequencing

Reference set, count: 6
recordsequence="UAACAGGGGGCCACAGCAGAAGCGUUCACGUCACAGCCCCUGUCAGAUUCUGGUGUAUCUGCGAAUUCUGCUGUAUAUCUC [G33A A56U]" resultvalue=0.18
recordsequence="UAACAGGGGGCCACAGCAGAAGCGUUCACAUCGCAGCCCCUGUCAGAUUCUGGUGAAACUGCGAAUUCUGCUGUAUAUCUC [G30A U58A]" resultvalue=0.09
recordsequence="UAACAGGGGGCCACAGCAGAAGCGUUCCCGUCGCAGCCCCUGUCAGCUUCUGGUGAAUCUGCGAAUUCUGCUGUAUAUCUC [A28C A47C]" resultvalue=0.18
recordsequence="UAACAGGGGGCCACAGCAGAAGCGUUCACGUCGCAGCCCCUGUCAGAUUCUCGAGAAUCUGCGAAUUCUGCUGUAUAUCUC [G52C U54A]" resultvalue=1.14
recordsequence="UAACAGGGGGCCGCAGCAGUAGCGUUCACGUCGCAGCCCCUGUCAGAUUCUGGUGAAUCUGCGAAUUCUGCUGUAUAUCUC [A13G A20U]" resultvalue=0.28
recordsequence="UAACAGGGGGGCACAGCAGAAGCGUUCACGUCGCAGCCCCUGUCAGACUCUGGUGAAUCUGCGAAUUCUGCUGUAUAUCUC [C11G U48C]" resultvalue=0.11

The recorded self-cleavage for UAACAGGGGGCCACAGCAGAAGCGUUCACGUAGCAGCCCGUGUCAGAUUCUGGUGAAUCUGCGAAUUCUGCUGUAUAUCUC [C32A C40G] is 0.43

The recorded self-cleavage for UAACAGGGGGCCACAGCAGAAGCGUUCACGUCGCAGCCCCAGUCAGGUUCUGGUGAAUCUGCGAAUUCUGCUGUAUAUCUC [U41A A47G] is 0.29
